measured.target: Inadl_8, Q8NI35
Sequence (Q8NI35 1425-1530): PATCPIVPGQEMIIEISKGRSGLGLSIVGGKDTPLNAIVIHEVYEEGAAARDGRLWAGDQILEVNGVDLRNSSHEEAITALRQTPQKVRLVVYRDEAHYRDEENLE
test.method.notes: holdup assay
Set-up: key: below the threshold = too weak to quantify, mostly under pKd 3.1 to 4
measurement.parameters: plain residues with an end cap or a label only (N-terminal biotin on a linker: ttds)
assay.endpoint: pKd

>>> print(df.to_string())
                          binder             observed
0     STLTIFETAL [ABCC4, O15439]  below the threshold
1  SRPQRTQTQV [HPV67-E6, A4U7F2]  below the threshold
2   SVWLRKETRV [CYSLTR2, Q9NS75]                 4.55
3    VLRLQSETSV [VANGL1, Q8TAA9]  below the threshold
